I'd be grateful if you could share measured inhibition at 10 µM for these entries.
Test system: primary mouse cortical neurons
Construct: primary cortical neurons, DIV 10
test protocol: cells
Parameters: Protection from NMDA-induced (30 uM, 10 min) neuronal death; Hoechst nuclear morphology by automated microscopy
conditions: Cortical neurone, 20 h, read-out: % inhibition, inhibition of NMDA-induced cell death (protection score), 30 min pre-treatment
Counter-ions that a name gives are not always drawn.
Give bare numbers, in %.

Observe how each entry below is paired with its result.
O=C(O)CSCC(=O)NC1CCSC1=O (stereo not drawn) ... -0.838
Cc1nc2n(c(=O)c1CCN1CCC(c3noc4cc(F)ccc34)CC1)CCCC2 [Risperidone (Risperdal)] ... 23.7
C[C@@H]1O[C@@H](OC[C@H]2O[C@@H](Oc3c(-c4ccc(O)c(O)c4)oc4cc(O)cc(O)c4c3=O)[C@H](O)[C@@H](O)[C@@H]2O)[C@H](O)[C@H](O)[C@H]1O [Rutin (Rutoside)] ... -3.76

Batch request: inhibition at 10 µM for each of the following compounds.
1. Clc1ccc(COC(Cn2ccnc2)c2ccc(Cl)cc2Cl)cc1 (stereo not drawn) [Econazole nitrate (Spectazole)]
2. C[C@]12C=CC(=O)C=C1CC[C@H]1[C@@H]3C[C@@H](O)[C@](O)(C(=O)CO)[C@@]3(C)C[C@H](O)[C@@]12F
3. CC(C(=O)O)c1cccc(Oc2ccccc2)c1 (stereo not drawn)

Found:
1: -2.25; 2: 16.3; 3: 1.38

For each of the compounds below, state inhibition at 10 µM.
1. NNc1nncc2ccccc12 [Hydralazine hydrochloride]
2. CCOc1nc2cccc(C(=O)OC(C)OC(=O)OC3CCCCC3)c2n1Cc1ccc(-c2ccccc2-c2nn[nH]n2)cc1 (stereo not drawn)
3. CCOC(=O)c1ncn2c1CN(C)C(=O)c1cc(F)ccc1-2
4. NC(=O)c1ncn([C@@H]2O[C@H](CO)[C@@H](O)[C@H]2O)c1N
5. CN1[C@@H]2CC[C@H]1C[C@@H](OC(=O)c1c[nH]c3ccccc13)C2

Found:
1: -0.625; 2: 7.42; 3: -13.8; 4: 4.99; 5: -4.08

* * *

Tested on: primary mouse cortical neurons
Construct: primary cortical neurons, DIV 10
test protocol: cells
Parameters: Protection from NMDA-induced (30 uM, 10 min) neuronal death; Hoechst nuclear morphology by automated microscopy
conditions: Cortical neurone, 20 h, read-out: % inhibition, inhibition of NMDA-induced cell death (protection score), 30 min pre-treatment
Counter-ions that a name gives are not always drawn.
experimental endpoint: inhibition at 10 µM (%)
Answers are plain numbers, in %.

Here is how some compounds turned out for inhibition at 10 µM.
C[C@]12CC[C@@H]3c4ccc(O)cc4C[C@@H](CCCCCCCCC[S+]([O-])CCCC(F)(F)C(F)(F)F)[C@H]3[C@@H]1CC[C@@H]2O (some centres unmarked) [Fulvestrant (Faslodex)] ... -2.64
Nc1nc2c(c(=O)[nH]1)N(C=O)C(CNc1ccc(C(=O)N[C@@H](CCC(=O)O)C(=O)O)cc1)CN2 (some centres unmarked) [Leucovorin Calcium] ... -10.9

Batch of 5 compounds: report inhibition at 10 µM for each.
1. CN(C)C(=O)C(CCN1CCC(O)(c2ccc(Cl)cc2)CC1)(c1ccccc1)c1ccccc1 [Loperamide hydrochloride]
2. CCCNC(C)C(=O)Nc1ccccc1C (centres unmarked) [Prilocaine]
3. CC(C)[C@]12O[C@H]1[C@@H]1O[C@]13[C@]1(O[C@H]1C[C@H]1C4=C(CC[C@@]13C)C(=O)OC4)[C@@H]2O [Triptolide]
4. CN1[C@@H]2CC[C@H]1CC(OC(=O)C(CO)c1ccccc1)C2 (some centres unmarked) [Atropine]
5. C[C@H]([C@H](O)CCC(C)(C)O)[C@H]1CC[C@@]2(O)C3=CC(=O)[C@@H]4C[C@@H](O)[C@@H](O)C[C@]4(C)[C@H]3CC[C@]12C [Ecdysone]

Found:
-2.48
7.71
-1.79
9.73
0.187

Give inhibition at 10 µM for each listed item.
1. C[C@]12CC[C@H]3[C@@H](CC[C@@]45O[C@@H]4C(O)=C(C#N)C[C@]35C)[C@@H]1CC[C@@H]2O [Trilostane]
2. C/C=C1\[C@H]2C=C(C)C[C@]1(N)c1ccc(=O)[nH]c1C2 [(-)-Huperzine A]
3. CC(C)C(=O)Oc1ccc(CO)cc1[C@H](CCN(C(C)C)C(C)C)c1ccccc1 [Fesoterodine fumarate (Toviaz)]
4. CN[C@@H]1[C@H](O)[C@H](NC)[C@H]2O[C@@]3(O)C(=O)C[C@@H](C)O[C@H]3O[C@@H]2[C@H]1O [Spectinomycin hydrochloride]
5. NCCCC(O)(P(=O)(O)O)P(=O)(O)O [Alendronate (Fosamax)]
6. CCC(C)(C)C(=O)O[C@H]1C[C@@H](C)C=C2C=C[C@H](C)[C@H](CC[C@@H]3C[C@@H](O)CC(=O)O3)[C@H]21 [Simvastatin (Zocor)]

Found:
1: 4.15; 2: -1.76; 3: -0.933; 4: -1.03; 5: 40.1; 6: 2.21

Lookup: What inhibition at 10 µM value was documented for this compound, C[C@]12CC[C@@H]3c4ccc(O)cc4CC[C@H]3[C@@H]1CC[C@@H]2O [Estradiol] ?
Found: 4.78

* * *

System: primary mouse cortical neurons
Construct: primary cortical neurons, DIV 10
test protocol: cells
Set-up: Protection from NMDA-induced (30 uM, 10 min) neuronal death; Hoechst nuclear morphology by automated microscopy
conditions: Cortical neurone, 20 h, read-out: % inhibition, inhibition of NMDA-induced cell death (protection score), 30 min pre-treatment
I'd be grateful if you could share measured inhibition at 10 µM for these entries.
Answers are plain numbers, in %.

# annotated cases, reported inhibition at 10 µM shown
Cc1nnc(C(=O)NC(C)(C)c2nc(C(=O)NCc3ccc(F)cc3)c(O)c(=O)n2C)o1 [Raltegravir (MK-0518)] ... 8.86
Cc1ccc(-n2[nH]c(C)c(N=Nc3cccc(-c4cccc(C(=O)O)c4)c3O)c2=O)cc1C [Eltrombopag (SB-497115-GR)] ... 93.9

Please look at the items below and tell me inhibition at 10 µM for each one, in order.
1. NC(=O)Cc1cccc(C(=O)c2ccccc2)c1N [Nepafenac]
2. COc1ccc(-c2ccc3cc(C(=O)O)ccc3c2)cc1[C@]12C[C@H]3C[C@H](C[C@H](C3)C1)C2 [Adapalene]
3. CNC[C@H](O)c1ccc(O)c(O)c1 [Epinephrine bitartrate (Adrenalinium)]
4. NS(=O)(=O)c1cc(C(=O)O)c(NCc2ccco2)cc1Cl [Furosemide (Lasix)]
5. CNC[C@@H](O)c1ccc(O)c(O)c1 [L-Adrenaline (Epinephrine)]
6. O=c1[nH]cnc2nc[nH]c12 [Hypoxanthine]

Found:
1: -12.2; 2: 63.6; 3: -0.43; 4: 32.1; 5: 0.37; 6: 1.08

* * *

Tested on: primary mouse cortical neurons
Construct: primary cortical neurons, DIV 10
test protocol: cells
Design: Protection from NMDA-induced (30 uM, 10 min) neuronal death; Hoechst nuclear morphology by automated microscopy
conditions: Cortical neurone, 20 h, read-out: % inhibition, inhibition of NMDA-induced cell death (protection score), 30 min pre-treatment
Structures can show the parent of a compound that is named as a salt.
I'd be grateful if you could share measured inhibition at 10 µM for these entries.
Numbers only, in %.

As a guide, the following entries are already answered.
CCCN[C@H]1CCc2nc(N)sc2C1 [Pramipexole dihydrochloride monohydrate] ... -0.655
O=c1c(O)c(-c2ccc(O)c(O)c2)oc2cc(O)ccc12 ... -2.5
CC(=O)N1CCN(c2ccc(OC[C@@H]3CO[C@@](Cn4ccnc4)(c4ccc(Cl)cc4Cl)O3)cc2)CC1 (racemic) ... -15.9
Cc1cc(O)c2c(c1)C(=O)c1cc(O)cc(O)c1C2=O ... -4.08
COc1cc2nc(N(C)CCCNC(=O)C3CCCO3)nc(N)c2cc1OC (stereo not shown) [Alfuzosin hydrochloride (Uroxatral)] ... -0.34
CN(C)CCOC(c1ccccc1)c1ccccc1 [Diphenhydramine HCl (Benadryl)] ... 1.97
COc1ccc2ccc(=O)oc2c1CC=C(C)C ... -1.21
CC[C@@]1([C@@H]2O[C@@H]([C@H]3O[C@@](O)(CO)[C@H](C)C[C@@H]3C)C[C@@H]2C)CC[C@H]([C@]2(C)CC[C@]3(C[C@H](O)[C@@H](C)[C@@H]([C@@H](C)[C@@H](OC)[C@H](C)C(=O)O)O3)O2)O1 [Monensin sodium salt (Coban)] ... 3.22
C[N+](C)(C)C[C@H](O)CC(=O)[O-] ... 3.2
C[C@H]1[C@H](C)CC[C@]2(C(=O)O)CC[C@]3(C)C(=CC[C@@H]4[C@@]5(C)CC[C@H](O)C(C)(C)[C@@H]5CC[C@]43C)[C@H]12 ... 6.94

Required: inhibition at 10 µM, one value per compound below.
1. COc1ccc([C@@H]2CC(=O)c3c(O)cc(O)cc3O2)cc1O
2. O=C(CCc1ccc(O)cc1)c1c(O)cc(O)cc1O[C@@H]1O[C@H](CO)[C@@H](O)[C@H](O)[C@H]1O
3. O=C(/C=C/c1ccc(O)c(O)c1)O[C@@H]1C[C@](O)(C(=O)O)C[C@@H](O)[C@H]1O

Found:
[-3.04, -2.89, -2.16]

Count: 3. Required value per item: inhibition at 10 µM.
1. NC(CO)C(=O)NNCc1ccc(O)c(O)c1O (stereo not shown) [Benserazide]
2. CCCc1nc(C)c2c(=O)nc(-c3cc(S(=O)(=O)N4CCN(CC)CC4)ccc3OCC)[nH]n12
3. CN1CCN2c3ccccc3Cc3ccccc3C2C1 (stereo not shown) [Mianserin hydrochloride]

Found:
[6.78, -5.64, -2.1]

Value sought for every listed compound: inhibition at 10 µM.
1. CC1(C)CC[C@]2(C(=O)O)CC[C@]3(C)C(=CC[C@@H]4[C@@]5(C)CC[C@H](O)C(C)(C)[C@@H]5CC[C@]43C)[C@@H]2C1
2. CCOc1cc(CC(=O)N[C@@H](CC(C)C)c2ccccc2N2CCCCC2)ccc1C(=O)O [Repaglinide]
3. OCc1ccc(O[C@@H]2O[C@H](CO)[C@@H](O)[C@H](O)[C@H]2O)cc1
4. C=C[C@H]1CN2CC[C@H]1C[C@H]2[C@H](O)c1ccnc2ccc(OC)cc12 [Quinine hydrochloride dihydrate]

Found:
-2
-4.69
3.84
-0.947

For every item in the list below, what is its measured inhibition at 10 µM?
1. O=C(c1ccc(OCCN2CCCCC2)cc1)c1c(-c2ccc(O)cc2)sc2cc(O)ccc12 [Evista (Raloxifene Hydrochloride)]
2. COc1ccc([C@@H]2CC(=O)c3c(O)cc(O[C@@H]4O[C@H](CO[C@@H]5O[C@@H](C)[C@H](O)[C@@H](O)[C@H]5O)[C@@H](O)[C@H](O)[C@H]4O)cc3O2)cc1OC
3. COc1cc(/C=C/C(=O)O)ccc1O
4. O=c1cccc2n1C[C@@H]1CNC[C@H]2C1
5. S=c1[nH]cnc2nc[nH]c12
6. CC(=O)O[C@H]1CC[C@@]2(C)C(=CC[C@@H]3[C@@H]2CC[C@]2(C)C(c4cccnc4)=CC[C@@H]32)C1 [Abiraterone Acetate (CB7630)]

Found:
1: -19.3; 2: -2.33; 3: -0.686; 4: -0.723; 5: -8.52; 6: -0.808
